Test system: BT-549 breast
Experiment: NCI-60 one-dose screen, 48 h (100 = growth as untreated, 0 = no growth, -100 = all killed)
Details: 10 µM unless noted
This is part of a sample that, as a whole, favours compounds with a hit. Of some 83,000 tested, about 20% had one in any assay.
Hi there, I'd appreciate the recorded growth for every entry that follows.
Note: unit % is implicit; provide only the numeric part.

Entry CN1CCN(Cc2ccc(NC(=O)c3cncc(C#Cc4cncn5ccnc45)c3)cc2C(F)(F)F)CC1 — recorded growth = 60.8

Entry FC(F)(F)Oc1ccc2nc3nc4ccc[nH]c4cc3c2c1 — recorded growth = 84.4

Entry COc1cc(-c2nc3ccccc3[nH]2)ccc1OCc1nnc(-c2ccc(CC(C)C)cc2)o1 — recorded growth = 88.5

Entry O=C1c2cc3c(cc2-c2c1c1ccc(Cl)cc1c(=O)n2CCCN1CCOCC1)OCO3 — recorded growth = 59.6

Entry CC1(C)CC[C@]2(C(=O)Nc3ccccn3)CC[C@]3(C)C(=CC[C@@H]4[C@@]5(C)C/C(=C/c6cccnc6)C(=O)C(C)(C)[C@@H]5CC[C@]43C)[C@H]2C1 — recorded growth = 42.2

Entry C=CC(=O)Nc1cccc(-c2nc(SC)nc(NCCN3CCOCC3)c2C#N)c1 — recorded growth = 87.7

Entry O=C(CN1C(=O)/C(=C/c2ccc(Cl)cc2)SC1=S)NCCCN1CCOCC1 — recorded growth = 102

Entry CC(=O)O[C@H]1CC[C@]2(C)[C@H]3CC=C4[C@@H]5CC(C)(C)CC[C@]5(C(=O)NCCNCCNCCN)CC[C@@]4(C)[C@]3(C)CC[C@H]2C1(C)C — recorded growth = 87.2

Entry COc1cc(C)c(C2C(C#N)=C(N)Oc3n[nH]c(-c4cccs4)c32)cc1C(C)C (stereo not drawn) — recorded growth = 102

Entry COc1ccc2nc(NC(=O)CSc3nnc4n3S(=O)(=O)c3ccccc3N4c3ccccc3)sc2c1 — recorded growth = 83.7

Entry O=C1Nc2cc(-c3ccc(O)cc3)ccc2/C1=C/c1ccc[nH]1 — recorded growth = 16.9

Entry O=C(COc1ccc(-c2nc3cc(Cl)c(Cl)cc3[nH]2)cc1)N=Nc1c(O)[nH]c2ccccc12 — recorded growth = 64.7

Entry NNCCc1ccc(NC(=O)CCCc2ccc(/C=C/C(=O)NO)cc2)cc1 — recorded growth = 44.9

Entry COc1ccc2cc(-c3nn(-c4ccc(C(=O)O)cc4)cc3CO)ccc2c1 — recorded growth = 93.5

Entry CCOc1nc(-c2ccccc2)cc2c(O)c(C(=O)N/N=C/c3ccc(O)cc3O)[nH]c(=O)c12 — recorded growth = 58.9

Entry c1ccc2[nH]c(-c3ccc(Nc4nc(N5CCCC5)nc5[nH]ncc45)cc3)nc2c1 — recorded growth = 59.7

Entry C#CC(F)(F)[C@]1(O)CC[C@H]2[C@@H]3CCC4=CC(=O)CCC4=C3[C@@H](c3ccc(C(C)=O)cc3)C[C@@]21C — recorded growth = 106

Entry CCCN1CCN(c2ccc3nc(-c4ccc5nc(-c6ccc(OCC)cc6)[nH]c5c4)[nH]c3c2)CC1 — recorded growth = 71.2

Entry CCCCn1c(-c2ccc(C(=O)O/N=C(\N)c3ccc4ccccc4c3)cc2)nc(-c2ccccc2)c1-c1ccccc1 — recorded growth = 87.9

Entry FC(F)(F)c1[nH]ncc1-c1nc2ccc3n[nH]c(C#Cc4cccnc4)c3c2c2c1CCCC2 — recorded growth = 10.3

Entry CCOc1ccc(C(C)=O)cc1NC(=O)c1cccc(-c2nnn(CC)n2)c1 — recorded growth = 58.5

Entry Nc1n[nH]c2ccc([C@@H]3Nc4ccc5[nH]ncc5c4[C@H]4C5C=CC(C5)[C@@H]34)cc12 (stereo partly drawn) — recorded growth = 3.98

Entry Cn1c(NCCc2ccc(O)c(O)c2)nc2c1c(=O)n(Cc1ccc(Cl)c(Cl)c1)c(=O)n2C — recorded growth = 67.1
